// data source = patent US20170349548A1

# tgt: Human PAK1 (Homo sapiens)
# Construct: purchased Promega V4479
# Sequence (Q13153 whole entry): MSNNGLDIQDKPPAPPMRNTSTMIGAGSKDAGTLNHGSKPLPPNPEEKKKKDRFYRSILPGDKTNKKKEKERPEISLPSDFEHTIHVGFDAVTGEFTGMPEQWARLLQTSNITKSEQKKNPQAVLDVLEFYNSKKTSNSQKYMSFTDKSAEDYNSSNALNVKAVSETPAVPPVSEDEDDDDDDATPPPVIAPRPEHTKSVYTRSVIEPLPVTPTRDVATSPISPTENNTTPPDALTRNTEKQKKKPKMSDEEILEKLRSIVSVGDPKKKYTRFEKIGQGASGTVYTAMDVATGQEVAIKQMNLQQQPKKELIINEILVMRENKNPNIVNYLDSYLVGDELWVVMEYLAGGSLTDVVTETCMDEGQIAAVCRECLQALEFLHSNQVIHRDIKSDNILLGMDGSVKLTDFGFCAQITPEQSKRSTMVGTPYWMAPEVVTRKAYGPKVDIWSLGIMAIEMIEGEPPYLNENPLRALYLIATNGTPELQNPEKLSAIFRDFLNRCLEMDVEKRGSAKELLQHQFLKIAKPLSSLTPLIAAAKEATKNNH
# test_protocol: PAK1 inhibitory activity, ADP-Glo kinase assay
# Assay type: biochemical
# run_parameters: Human PAK1 25 ng; 10 min preincubation with test compound, 40 min with ATP/substrate mix; room temperature; luminescence; read-out: IC50 (PAK1 inhibitory activity)
property: IC50 (nM)

>>> val("Oc1ccc(C=Cc2cc(O)cc(O)c2)cc1 [Resveratrol, resveratrol, reference compound]")
15000
>>> val("O=c1c(O)c(-c2ccc(O)c(O)c2)oc2cc(O)cc(O)c12 [Quercetin, quercetin, reference compound]")
340000
>>> val("COc1cc(CCc2ccc(O)c(O)c2)oc(=O)c1")
2000
>>> val("COc1cc(/C=C/c2ccc(OC)c(OC)c2)oc(=O)c1")
1600
>>> val("N[C@@H](Cn1ccc(=O)c(O)c1)C(=O)N[C@@H](Cc1ccccc1)C(=O)N[C@@H](Cc1ccc(O)cc1)C(=O)N[C@@H](Cc1ccc(O)cc1)C(=O)O")
2300
>>> val("N[C@@H](Cn1ccc(=O)c(O)c1)C(=O)N[C@@H](Cc1ccccc1)C(=O)N[C@@H](Cc1ccccc1)C(=O)N[C@@H](Cc1ccc(O)cc1)C(=O)O")
130
>>> val("COc1cc(CCc2ccc(OC)c(OC)c2)oc(=O)c1")
1200
>>> val("N[C@@H](Cn1ccc(=O)c(O)c1)C(=O)N[C@@H](Cc1ccccc1)C(=O)N[C@@H](Cc1c[nH]c2ccccc12)C(=O)N[C@@H](Cc1ccc(O)cc1)C(=O)O")
600
>>> val("N[C@@H](Cn1ccc(=O)c(O)c1)C(=O)O")
37000
>>> val("N[C@H](CO)Cn1ccc(=O)c(O)c1")
30000

###

# tgt: Human PAK1 (Homo sapiens)
# Construct: purchased Promega V4479
# test_protocol: PAK1 inhibitory activity, ADP-Glo kinase assay
# Format: biochemical
# run_parameters: IC50 (PAK1 inhibitory activity), Human PAK1 25 ng; 10 min preincubation with test compound, 40 min with ATP/substrate mix; room temperature; luminescence
pIC50: −log10 of the molar value.
property: pIC50

>>> val("CC(C)(O)/C=C/C(=O)[C@](C)(O)[C@H]1[C@H](O)C[C@@]2(C)[C@@H]3CC=C4C(C=C(O)C(=O)C4(C)C)[C@]3(C)C(=O)C[C@]12C (stereo partly shown)")
4.72
